assay: inhibitors of hepatocyte lipid droplet formation, primary screen, imaging, high-throughput imaging, BODIPY stain (AID 1656); conditions: AML12 mouse hepatocytes, oleate lipid droplets, at 6.5 µM; measured here: cell count, cytotoxicity flag;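 as to cell count: cells counted across two imaged fields per well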
Out of some 240,000 compounds screened, about 950 (0.4%) were called active. This is one part of a sample in which actives are shown more often than they occur.

[
  {
    "compound": "COc1ccc(/C=C(/CC(=O)Nc2ccc(C)cc2)c2nc3ccccc3s2)cc1",
    "unit-spec": "cells",
    "cell count": 713
  },
  {
    "compound": "CN1CCN(CCNC(=O)Nc2ccccc2[N+](=O)[O-])CC1",
    "unit-spec": "cells",
    "cell count": 440
  },
  {
    "compound": "CC(C)c1ccc2oc(=O)cc(CN3CCN(Cc4ccccc4)CC3)c2c1",
    "unit-spec": "cells",
    "cell count": 850
  },
  {
    "compound": "COCCCNC(=O)CN1C(=O)CSc2ccc(S(=O)(=O)N3CCOCC3)cc21",
    "unit-spec": "cells",
    "cell count": 798
  },
  {
    "compound": "CCn1cc(S(=O)(=O)c2cccc(C)c2)c(=O)c2cc(F)c(N3CCN(C)CC3)cc21",
    "unit-spec": "cells",
    "cell count": 738
  },
  {
    "compound": "COc1cc2ccccc2cc1C(=O)Nc1ccc(N2CCOCC2)cc1",
    "unit-spec": "cells",
    "cell count": 835
  },
  {
    "compound": "CCOc1ccccc1-c1cc(C(=O)N/N=C(\\C)c2cccnc2)c2ccccc2n1",
    "unit-spec": "cells",
    "cell count": 660
  },
  {
    "compound": "CC(C)c1ccc(N(C(=O)c2ccco2)C(C(=O)NC2CCCC2)c2cccnc2)cc1 (stereo not given)",
    "unit-spec": "cells",
    "cell count": 761
  },
  {
    "compound": "Cc1cccc(N2CCN(C(=O)c3cccc(N4C(=O)C5C6C=CC(C6)C5C4=O)c3)CC2)c1C (stereo not given)",
    "unit-spec": "cells",
    "cell count": 793
  },
  {
    "compound": "CCC(C(=O)NC1CCCCC1)N(C(=O)c1snc(C(N)=O)c1N)c1ccc(OC)cc1OC (stereo not given)",
    "unit-spec": "cells",
    "cell count": 820
  }
]

* * *

test: inhibitors of hepatocyte lipid droplet formation, primary screen, imaging, high-throughput imaging, BODIPY stain (AID 1656); settings: AML12 mouse hepatocytes, oleate lipid droplets, at 6.5 µM; measured here: cell count, cytotoxicity flag;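 as to cell count: cells counted across two imaged fields per well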
About 950 (0.4%) of roughly 240,000 compounds were called active. Shown is part of a subset that was picked to be rich in actives.
The entries below are paired with their reported cell count.
measurement-label: cell count (cells)

[
  {
    "compound": "CC1CCN(C(=S)NC(=O)c2ccccc2Br)CC1",
    "data-value": 661
  },
  {
    "compound": "Cc1ccc(/C=C2/SC(=S)N(CCC(=O)NCCCN3CCOCC3)C2=O)cc1",
    "data-value": 794
  },
  {
    "compound": "CCOc1ccc(CCNC(=O)C(CC)n2nc(C)n3c(cc4sccc43)c2=O)cc1OCC (stereo unspecified)",
    "data-value": 786
  },
  {
    "compound": "Cc1nc2cc(C(F)(F)F)ccc2n1CCNc1nc(-c2cc(Cl)c(N)c(Cl)c2)cs1",
    "data-value": 750
  },
  {
    "compound": "Cc1ccc(C)c(S(=O)(=O)N2CCCOC2CNC(=O)C(=O)NC2CCCCC2)c1 (stereo unspecified)",
    "data-value": 690
  },
  {
    "compound": "Cc1ccc(CNC(=O)CCS(=O)(=O)c2ccc3c(c2)CC(C)N3C(=O)C2CC2)o1 (stereo unspecified)",
    "data-value": 715
  },
  {
    "compound": "COc1cc(SC)ccc1C(=O)N(Cc1ccccc1)c1ccccc1",
    "data-value": 608
  },
  {
    "compound": "CCOC(=O)[C@H]1[C@H]2COc3cc(OC)ccc3[C@@H]2N2C(=O)N(c3ccc(Br)cc3)C(=O)[C@@]12C",
    "data-value": 831
  },
  {
    "compound": "Cc1cccn2c(=O)c(/C=C(\\C#N)C(N)=O)c(N3CCCCCC3)nc12",
    "data-value": 788
  },
  {
    "compound": "CC(C)CCn1c(=O)c2c(nc3n2CCCN3Cc2ccccc2)n(C)c1=O",
    "data-value": 827
  },
  {
    "compound": "O=C(/C=C/c1ccc([N+](=O)[O-])o1)NNC(=O)c1ccc(F)cc1",
    "data-value": 473
  },
  {
    "compound": "COc1ccc(-c2csc(-c3cccs3)n2)cc1OC",
    "data-value": 713
  },
  {
    "compound": "C=C(C)Cn1c(N2CCCC2)nc2c1c(=O)[nH]c(=O)n2C",
    "data-value": 632
  },
  {
    "compound": "COc1ccc(CCNC(=O)COC(=O)/C=C/c2cccs2)cc1OC",
    "data-value": 727
  },
  {
    "compound": "CCOc1ccc(NC(=O)CCCCCN2C(=O)[C@@H]3Cc4ccccc4CN3C2=O)cc1",
    "data-value": 676
  },
  {
    "compound": "CCOCCCNc1nc(-c2ccccc2)nc2ccccc12",
    "data-value": 835
  },
  {
    "compound": "COc1ccc(OC)c(CNC(=O)CCc2nc(-c3cccs3)no2)c1",
    "data-value": 746
  },
  {
    "compound": "COc1cccc(N(CC(=O)NC2CCCCCC2)S(=O)(=O)c2ccccc2)c1",
    "data-value": 750
  },
  {
    "compound": "Cc1ccccc1OCC(=O)Nc1ccc(S(=O)(=O)N2CCOCC2)cc1",
    "data-value": 768
  },
  {
    "compound": "CCOc1ccccc1NC(=S)N1CCN(c2cccc(C)c2C)CC1",
    "data-value": 777
  },
  {
    "compound": "CC1CCN(c2nc3c(c(=O)[nH]c(=O)n3C)n2CCCc2ccccc2)CC1",
    "data-value": 572
  }
]

* * *

test: inhibitors of hepatocyte lipid droplet formation, primary screen, imaging, high-throughput imaging, BODIPY stain (AID 1656); conditions: AML12 mouse hepatocytes, oleate lipid droplets, at 6.5 µM; stronger effect = higher value
In all, about 240,000 compounds went through this assay and about 950 (0.4%) were called active. Many of the other results were omitted from the sample, so actives are more common in it than they were.

[
  {
    "compound": "COc1cc(/C=N/NC(=O)c2ccoc2C)ccc1OCCN1CCCCC1",
    "unit-spec": "%",
    "inhibition": 4.7
  },
  {
    "compound": "COc1ccc(-c2c(C#Cc3ccccc3)c3ccccc3n2C)cc1",
    "unit-spec": "%",
    "inhibition": -11.3
  },
  {
    "compound": "COc1cc(/C=N/NC(=O)Nc2ccccc2)ccc1OCCOc1ccccc1C",
    "unit-spec": "%",
    "inhibition": 94.6
  },
  {
    "compound": "COc1ccc(N(Cc2cc3ccc(C)cc3[nH]c2=O)S(=O)(=O)c2ccccc2)cc1",
    "unit-spec": "%",
    "inhibition": -6.7
  },
  {
    "compound": "COc1ccccc1N1CCN(S(=O)(=O)c2ccc3c(c2)NC(=O)CS3)CC1",
    "unit-spec": "%",
    "inhibition": -12.7
  },
  {
    "compound": "COc1cc2c(cc1OC)CN(C(=O)c1cc(S(=O)(=O)N3CCCCC3)ccc1Cl)CC2",
    "unit-spec": "%",
    "inhibition": -18.7
  },
  {
    "compound": "COc1ccc(C)cc1Nc1n[n+](-c2ccccc2)c(-c2cccc(Cl)c2Cl)s1",
    "unit-spec": "%",
    "inhibition": -4.7
  },
  {
    "compound": "CCOCCCN(C)C1CCN(C(=O)c2oc3ccccc3c2NC(=O)COc2cccc(C)c2)CC1",
    "unit-spec": "%",
    "inhibition": -24.8
  },
  {
    "compound": "CCn1cc(CN2CCN(CC(C)(C)C)C(CCO)C2)c2ccccc21 (stereo not given)",
    "unit-spec": "%",
    "inhibition": 5.1
  },
  {
    "compound": "CC1CCCN(CCCNC(=O)CN2C(=O)COc3ccc(S(=O)(=O)N4CCOCC4)cc32)C1 (stereo not given)",
    "unit-spec": "%",
    "inhibition": -12.4
  }
]

* * *

The entries below are paired with their reported inhibition.
test: inhibitors of hepatocyte lipid droplet formation, primary screen, imaging, high-throughput imaging, BODIPY stain (AID 1656); conditions: AML12 mouse hepatocytes, oleate lipid droplets, at 6.5 µM; stronger effect = higher value
About 950 (0.4%) of roughly 240,000 compounds were called active. What follows is part of a selection rich in actives, with near analogues and random picks from the rest.

[
  {
    "compound": "CCOC(=O)CC1C(=O)NCCN1c1nc2c(C)cccn2c(=O)c1/C=C1\\SC(=S)N(C(C)CC)C1=O (centres undefined)",
    "unit-spec": "%",
    "inhibition": 36.8
  },
  {
    "compound": "COc1cccc(C(=O)N/N=C(\\C)c2cccc(NC(=O)c3ccc(F)cc3)c2)c1OC",
    "unit-spec": "%",
    "inhibition": -6.8
  },
  {
    "compound": "O=C(Cn1cnc2cc([N+](=O)[O-])ccc2c1=O)NC(=O)NCc1ccccc1",
    "unit-spec": "%",
    "inhibition": -1
  },
  {
    "compound": "COc1cc(/C=N/NC(=O)c2cccnc2)ccc1OC(=O)c1cccc(Br)c1",
    "unit-spec": "%",
    "inhibition": -11.9
  },
  {
    "compound": "CCCN(CCC)c1nc2c(C)cccn2c(=O)c1/C=C1/SC(=S)N(Cc2ccco2)C1=O",
    "unit-spec": "%",
    "inhibition": 57.5
  },
  {
    "compound": "COc1ccc(NC(=O)NCCN2CCN(c3ccc(C)cc3)CC2)c(Cl)c1",
    "unit-spec": "%",
    "inhibition": -0.4
  },
  {
    "compound": "COc1ccccc1CNC(=O)C1CCN(S(=O)(=O)c2ccc3c(c2)CC(C)N3C(=O)C2CC2)CC1 (centres undefined)",
    "unit-spec": "%",
    "inhibition": -4.5
  },
  {
    "compound": "CCCCNC(=O)c1cn(CC)c2cc(N3CCN(C(=O)c4ccco4)CC3)c(F)cc2c1=O",
    "unit-spec": "%",
    "inhibition": -15.8
  },
  {
    "compound": "COc1ccc(Cl)cc1NC(=O)CN(C)C(=O)CCCc1c[nH]c2ccccc12",
    "unit-spec": "%",
    "inhibition": 53.5
  }
]
